Cited source for all entries: patent US20150322137A1

Below, each of the binders is paired with its reported IC50, neutralizing activity (hMPV infection of LLC-MK2 cells) value.
Biological target: F protein of human metapneumovirus strain JPS03-180 (type A1), on infectious virus (human metapneumovirus, strain JPS03-180 …)
Assay: cell-based or functional assay
Give just the numeric value; µg/mL need not be written.

These solved cases illustrate the format of a correct answer.
{"BINDER": "EV046141 (antibody, human IgG1, lambda, V domains shown) VH: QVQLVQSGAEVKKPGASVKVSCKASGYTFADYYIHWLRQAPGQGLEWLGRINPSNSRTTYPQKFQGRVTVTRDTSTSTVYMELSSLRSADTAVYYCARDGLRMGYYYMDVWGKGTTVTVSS VL: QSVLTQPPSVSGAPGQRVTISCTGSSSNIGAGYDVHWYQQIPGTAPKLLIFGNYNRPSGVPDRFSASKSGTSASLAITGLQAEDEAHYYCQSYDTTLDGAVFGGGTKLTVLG", "OBSERVED MEASUREMENT": 0.2}
{"BINDER": "EV046116 (antibody, human IgG1, kappa, V domains shown) VH: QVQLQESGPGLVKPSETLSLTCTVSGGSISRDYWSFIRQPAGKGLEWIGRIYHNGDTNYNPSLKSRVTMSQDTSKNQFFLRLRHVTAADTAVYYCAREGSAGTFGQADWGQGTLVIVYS VL: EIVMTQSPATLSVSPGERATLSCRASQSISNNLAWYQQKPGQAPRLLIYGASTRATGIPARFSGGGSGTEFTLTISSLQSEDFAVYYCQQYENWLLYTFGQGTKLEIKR", "OBSERVED MEASUREMENT": 0.31}

IN: Read off the recorded IC50, neutralizing activity (hMPV infection of LLC-MK2 cells) for EV046120 (antibody, human IgG1, lambda, V domains shown) VH: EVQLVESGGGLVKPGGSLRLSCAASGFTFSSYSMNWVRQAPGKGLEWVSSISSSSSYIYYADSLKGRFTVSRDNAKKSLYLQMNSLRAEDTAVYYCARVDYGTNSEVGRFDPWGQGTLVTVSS VL: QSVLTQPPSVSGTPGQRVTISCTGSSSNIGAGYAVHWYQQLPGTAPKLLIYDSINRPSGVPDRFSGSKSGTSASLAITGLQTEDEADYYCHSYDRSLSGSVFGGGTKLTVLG
OUT: 0.32
